Assignment: determine reported Z score for the given compounds.
- System: Plasmodium falciparum
- test.protocol: Primary screen in NF54 nanoGlo assay, in single point, at 2uM, 72h
- Format: functional, Erythrocyte
- details: timepoint 72 hour
The campaign covered roughly 150,000 compounds. About 540 (0.36%) showed an effect of 50% or more. Many of the other results were omitted from the sample, so strong results are more common in it than they were.
Give your answer as a number; write no unit.

*Q* So what does the record say about Z score for COc1cccc(-c2cc(O)cc(CC[C@H]3CCCCN3)c2)n1 ?
*A* -13.26

*Q* Input Oc1cc(CC[C@H]2CCCCN2)cc(-c2cnc3ccccc3n2)c1
*A* -7.37

*Q* // next record COc1ccnc(-c2cc(O)cc(CC[C@H]3CCCCN3)c2)n1
*A* 0.49

*Q* What do we get for Oc1ccc(-c2cc(O)cc(CC[C@H]3CCCCN3)c2)nc1 ?
*A* 1.77

*Q* Ok, now CC(O)CC(C)(C)CNC1CCCc2occc21 (stereo unspecified)
*A* 0.84

*Q* Moving on to the next compound: COc1ccccc1OCC(=O)Nc1cc(C)nn1-c1nc2c(c(=O)[nH]1)CCC2
*A* -0.14

*Q* Now the same for COCC(=O)Nc1cc(C)nn1-c1nc2c(c(=O)[nH]1)CCC2
*A* -0.17

*Q* Now consider Oc1cccc(CN[C@H]2CCCc3occc32)c1Cl .
*A* -12.81

*Q* One more compound: Fc1cc(Cl)ccc1OC[C@@H]1CCCN2CCCC[C@H]12
*A* -2.29

*Q* Input O=C(O)c1cccc(-c2noc(C3CC3)n2)c1
*A* -1.45

*Q* Ok, now CN(C)c1cncc(-c2cc(O)cc(CC[C@H]3CCCCN3)c2)n1
*A* 0.33

---

- Tested on: Plasmodium falciparum
- test.protocol: Primary screen in NF54 nanoGlo assay, in single point, at 2uM, 72h
- Format: functional, Erythrocyte
- details: timepoint 72 hour
The whole screen tested about 150,000 compounds, of which about 540 (0.36%) showed an effect of 50% or more. This is one part of a sample in which strong results are shown more often than they occur.
measure: Z score
Give your answer as a number; write no unit.

*Q* Please give the measured Z score for this molecule: O=C(COc1ccccc1Cl)Nc1ccc(C2(c3ccc(NC(=O)COc4ccccc4Cl)cc3)c3ccccc3-c3ccccc32)cc1
*A* -1.02

*Q* Also CNC(=O)c1ccc(OC)c(-c2ccc(NCCN3CCOCC3)nc2)c1 , if possible.
*A* 1.05

*Q* Now this one: Cc1ccc(C(=O)C[n+]2cc(-c3ccc(-c4ccccc4)cc3)n(C)c2N)cc1
*A* -0.38

*Q* What do we get for O=C1c2ccccc2C(c2ccc(NC(=O)c3cccc4ccccc34)cc2)(c2ccc(NC(=O)c3cccc4ccccc34)cc2)c2ccccc21 ?
*A* -13.49

*Q* Follow-up item: CC(C)CNC(=O)[C@H](C)NCCn1cccn1
*A* 0.23

*Q* CCOc1cccc2[nH]cc(CC(=O)N[C@H](c3nccn3C)C3CC3)c12 ?
*A* -0.9

*Q* Same again, this time with CCc1nsc(N2CC(C)N(CC#N)C(C)C2)n1 (centres undefined)
*A* 0.45

*Q* Quick one: CCOCCCNCc1ccc(F)cc1
*A* 1.59

*Q* Okay, and Cc1ccc(CN2CCC3(CC2)c2nc[nH]c2CCN3C(=O)C2CCC2)cc1C ?
*A* 1.47

*Q* One more molecule: Cc1cc(C)n(Cc2c(C(=O)NCc3ccc(N(C)C)cc3)noc2C)n1
*A* 1.35

*Q* What do you have for CC1(C)[C@H]2CC=C(CCNc3nc(-c4ccncc4)nc4c3CNC4)[C@@H]1C2 ?
*A* -0.03

*Q* Here is the next molecule: CCOC(=O)c1cn(CC2CCCCC2)c2nc(C)ccc2c1=O
*A* -2.66

*Q* Entry COCC(O)CN1CCCC(C(C)C)CC1 (centres undefined) please
*A* 0.7

*Q* // repeat for Cc1ccc(-c2cc(C(=O)Nc3ncccc3Cl)c3ccccc3n2)s1 and report
*A* -0.34

*Q* Note, next up: Brc1ccc(-c2nc(Cn3ccnn3)co2)cc1
*A* 1.68

*Q* Next up: O=C1NC(c2ccc(NC(=O)c3cccc4ccccc34)cc2)(c2ccc(NC(=O)c3cccc4ccccc34)cc2)c2ccccc21
*A* -3.32

*Q* # repeat for Nc1ccc(C2(c3ccc(N)cc3)c3ccccc3C(=O)c3ccccc32)cc1
*A* -2.61

*Q* Also need CC(=O)NC[C@H]1CN(c2ccnc(C(C)(C)C)n2)CCO1 , thanks.
*A* 1.4

*Q* // next record Cc1nccn1CCNC(=O)c1cc2cccc(Cl)c2n1C
*A* 1.43

*Q* Moving on to the next molecule: Cc1nc(CC(=O)NC[C@H](O)COc2ccc(F)cc2)cs1
*A* 0.65

*Q* Another: CC(C)C(=O)N[C@@H](N1CCCCCC1)C(Cl)(Cl)Cl
*A* 2.02

*Q* Would you kindly repeat that for CN(C)c1noc(CN2CCc3c(F)cc(F)cc3C2)n1 ?
*A* -0.88

*Q* How about CN(Cc1ccc2ccn(C)c2c1)C[C@H]1CCCCO1 ?
*A* 0.4

*Q* Now try CC(NC(CC1CCC1)c1ccccc1)c1cn(C)nn1 (centres undefined) .
*A* -0.82

*Q* Another: O=C(CCc1cc2n(n1)CCN(Cc1ccc3ccccc3n1)C2)NCCO
*A* 2.81

*Q* Entry to check: OC1CCCCC1N1CCc2sccc2C1 (centres undefined)
*A* 2.66

*Q* What do you have for CN(C)c1noc(CN2CCc3ccc(F)cc3C2)n1 ?
*A* -2.97

*Q* Also need C[C@H](NC(=O)c1ccccc1)C(=O)NCC1(N2CCOCC2)CCCCC1 , thanks.
*A* 0.39

*Q* Next up: O=C(Nc1ccc(C2(c3ccc(NC(=O)c4ccc(F)cc4)cc3)c3ccccc3C(=O)c3ccccc32)cc1)c1ccc(F)cc1
*A* -2.85

*Q* Can you handle CCCc1nc(CN2CCc3ccc(F)cc3C2)no1 next?
*A* 0.53

*Q* // query: CCC1CCC(C(=O)NCC(=O)N2CCn3cncc3C2)CC1 (centres undefined)
*A* 2.8

*Q* Same read-out for CCOC(=O)NCCC(=O)NCCC[C@H]1CCCCO1 ?
*A* 0.49

*Q* Now this one: CN(C)c1ccc(NC(=O)CCCc2ccc3[nH]c(=O)[nH]c3c2)nc1
*A* 0.04

*Q* Cool, now FC(F)(F)c1ccc(-c2nc(Cn3ccnn3)co2)cc1
*A* -0.03

*Q* Follow-up entry: Cc1cccc2c1OCC[C@@H]2NCc1cnn(C(C)C)c1
*A* 0

*Q* Same for CC(=O)NCCn1ccnc1-c1ccc(F)c(F)c1F
*A* 1.18

*Q* Another molecule: CC1CC(C(=O)NCC2CCCCC2)c2ccccc2N1 (centres undefined)
*A* -0.43

*Q* Query Cc1cc(C)nc(NC[C@H](O)COc2ccc(F)cc2)n1 next
*A* -0.6

*Q* What about this molecule? O=C(Nc1ccc(-c2c3ccccc3c(-c3ccc(NC(=O)c4cccc5ccccc45)cc3)c3ccccc23)cc1)c1cccc2ccccc12
*A* 1.08

*Q* Now consider CC(C)c1ccc(CCCNS(N)(=O)=O)cc1 .
*A* -0.97

*Q* # iterate: O=C(Nc1ccc2c(c1)OCO2)c1ccc(=O)n(Cc2ccc(Cl)cc2)c1
*A* 1.88

*Q* Try this molecule too: CCCc1cc(C(=O)N2C[C@@H]3CC[C@H]2CN(C(C)=O)C3)n(C)n1
*A* -0.61

*Q* Moving on to the next molecule: Cn1c(-c2ccc(Cl)c(Cl)c2)c[n+](CC(=O)c2ccc(F)cc2)c1N
*A* -4.75

*Q* Same thing, different molecule: NC(=O)NCCC[C@@H]1NC(=O)[C@H](Cc2ccccc2)NC1=O
*A* 1.78

---

Exercise: state measured Z score for each of the compounds provided.
- Tested on: Plasmodium falciparum
- test.protocol: Primary screen in NF54 nanoGlo assay, in single point, at 2uM, 72h; a lower Z score goes with more inhibition
- Format: functional, Erythrocyte
- details: timepoint 72 hour
The campaign covered roughly 150,000 compounds. About 540 (0.36%) showed an effect of 50% or more. Many of the other results were omitted from the sample, so strong results are more common in it than they were.
// return just the number, without any unit appended

*Q* Given the compound Cc1nn(C)cc1-c1nn(-c2nc(C3CC3)cc(C(F)(F)F)n2)c(-c2cn(C)nc2C)c1C , what is its reported Z score?
*A* 0.79

*Q* Queued: CC(=O)Oc1ccc(N2C(=O)[C@@H]3[C@H](Cc4ccccc4)N[C@]4(C(=O)Nc5c4ccc(Cl)c5C)[C@@H]3C2=O)cc1
*A* 0.38

*Q* Can you handle Cc1c(-c2nn(-c3ccccc3)c(-c3cnn(C)c3C)c2Cl)cnn1C next?
*A* -4.45

*Q* Another: CC(C)CNC(=O)c1[nH]cnc1C(=O)N1CCC(Cc2ccccc2)CC1
*A* -3.65

*Q* Please answer likewise for c1ccc(CC2(c3nc(-c4cnccn4)no3)CCC2)cc1
*A* -2.33
